Tested on: HT-29
Test Name: NCI tumour cell line growth inhibition, 48 h
Active and inactive are the calls of the source. No stated cut-off is given here; in the data, active = GI50 up to about 1.1 µM and inactive = higher.
Possible outcomes: true (active), false (inactive)

# Compound String, System, Assigned Category
rows = [
    ("Cc1ccc(NC(=O)/C(=N/NC(=O)C[N+](C)(C)C)c2nc3ccccc3nc2O)cc1", "HT-29", "false"),
    ("Cc1cc(C)c2c(=N)c3ccccc3n(CCCCCCO)c2n1", "HT-29", "true"),
    ("COc1ccc2c(c1)c(CC(=O)O)c(C)n2C(=O)c1ccc(Cl)cc1", "HT-29", "false"),
    ("N#Cc1c(N)nc2c(c1-c1ccc(Br)cc1)CSc1ccccc1-2", "HT-29", "false"),
    ("COc1ccc(-c2ncn(C[Si](C)(C)C)c2-c2ccc(OC)cc2)cc1", "HT-29", "false"),
    ("O=C(O)CN(c1ccccc1)S(=O)(=O)c1ccc(NC(=O)c2ccccc2)cc1", "HT-29", "false"),
    ("N=C(N)N/N=C\\c1ccc(C2CCNCC2)cc1", "HT-29", "false"),
    ("Nc1nc(=O)n([C@@H]2CC[C@H](CO)O2)cc1F", "HT-29", "false"),
    ("COc1cccc(/C=N/[N+](C)(C)C)c1O", "HT-29", "false"),
    ("CC(C)(C)C#C[P+](c1ccccc1)(c1ccccc1)c1ccccc1", "HT-29", "true"),
    ("Cc1csc2c1C(=O)c1ccsc1C2=O", "HT-29", "false"),
    ("O=c1ccccc2cccc(O)c12", "HT-29", "false"),
]

* * *

Tested on: UACC-257
Test Name: NCI tumour cell line growth inhibition, 48 h
Active and inactive are the calls of the source. No stated cut-off is given here; in the data, active = GI50 up to about 1.1 µM and inactive = higher.
Possible outcomes: active, inactive

# Molecule, Assigned Category
records = [
    ("O/N=C1\\C/C(=N\\O)c2c(Br)sc(Br)c21", "inactive"),
    ("COC(=O)c1cc(OC)c(OC)c(OC)c1-c1cc2c(cc1C=O)OCO2", "inactive"),
    ("CC(C)=CCC/C(C)=C/CC/C(C)=C/CSc1ccccc1C(=O)O [SALIRASIB]", "inactive"),
    ("COc1ccc(Cc2nc3ccccc3s2)cc1OC", "inactive"),
    ("Cc1cc2nc3n(c2cc1C)C(c1c(F)cccc1F)SC3 (configuration not stated)", "inactive"),
    ("CCOC(=O)NC(=S)NC(C)c1ccccc1 (configuration not stated)", "inactive"),
    ("COC(=O)C1(Cc2cccc(Cl)c2)CCCCCCN1C(=O)c1ccccc1 (configuration not stated)", "inactive"),
    ("CS(=O)(=O)OCCN(CCOS(C)(=O)=O)c1ccc(/C=N/c2ccc(-c3csc(Cc4ccccc4)n3)cc2)c(Cl)c1", "inactive"),
    ("Cc1ccc2nc(CN3CCCC(O)C3)cc(=O)n2c1 (configuration not stated)", "inactive"),
    ("CCc1c2c(cc3c1CC1(C3)Cc3cc4c(c(C(=O)OC)c3C1)CCCC4)CCCC2 (configuration not stated)", "inactive"),
    ("O=C(O)c1cc2ccccc2oc1=O [COUMARIN-3-CARBOXYLIC ACID]", "inactive"),
    ("Cc1cc(N)c(C)c2c1[nH]c1ccc(O)cc12", "inactive"),
    ("O=C(/C=C/c1ccc(Cl)cc1)Oc1ccc(/C=C2\\CCCCC2=O)cc1", "inactive"),
    ("O=C1c2ccccc2C(=O)N1n1c(Cc2ccc([N+](=O)[O-])cc2)n[nH]c1=O", "inactive"),
    ("N=C(N)N/N=C\\c1ccc(C2CCNCC2)cc1", "inactive"),
    ("COc1cc(N(C)C)ccc1C=c1c2ccccc2n2c1cc(-c1ccccc1)[n+]2C", "active"),
    ("Cc1ccccc1-n1c(=S)[nH]c2c(sc(=O)n2-c2ccccc2C)c1=O", "inactive"),
    ("Oc1ccc(/C=N/CC2CCCN3CCCCC23)cc1 (configuration not stated)", "inactive"),
    ("O=C(N/N=C(COc1ccccc1Cl)\\N=C\\c1ccncc1)c1ccncc1", "inactive"),
    ("Cc1ccc(O)c(C2=CC(c3cccc(Cl)c3)SC(=N)N2)c1 (configuration not stated)", "inactive"),
    ("Cc1c(O)ccc2c(O)c(NC(=O)c3ccc4c(c3)CCC(C)(C)O4)c(=O)oc12 [CYCLONOVOBIOCIC ACID]", "inactive"),
    ("CC1CC(C)C2=NOS3=C2C1=NO3 (configuration not stated)", "inactive"),
]

* * *

Test system: NCI-H23
Test Name: NCI tumour cell line growth inhibition, 48 h
Calls of active or inactive are those of the source. Rule as the data show it: active = GI50 up to about 1.1 µM and inactive = higher.
Possible outcomes: Y = active, N = inactive

# Compound, Assigned Category
rows = [
    ("CC(C)c1cc(OCC(O)CO)cc(C(C)C)c1 (configuration not stated)", "N"),
    ("Cc1ccc(/N=N/C2S/C(=C(\\C#N)c3nc4ccccc4[nH]3)N(c3ccccc3)C2=O)cc1 (configuration not stated)", "N"),
    ("C=CCn1c(=O)ccn(COCCO)c1=O", "N"),
    ("Cc1c(-c2nnc(-c3ccccc3)o2)c(=O)n(-c2ccccc2)n1C", "N"),
    ("CC(=O)O[C@H]1CCC2[C@@H]3CCC4NC(=O)C(C#N)C[C@]4(C)C3CC[C@@]21C (some centres not stated)", "N"),
    ("CN(C)CCNC(=O)c1ccc(NCCCN(C)CCCNc2ccc(C(=O)NCCN(C)C)c3nc4ccccc4c(O)c23)c2c(O)c3ccccc3nc12", "Y"),
    ("Cc1cn(CCOCCOC(=O)NC(CCCNC(=N)N)C(=O)O)c(=O)[nH]c1=O (configuration not stated)", "N"),
]

* * *

Test system: A549
Test Name: NCI tumour cell line growth inhibition, 48 h
Calls of active or inactive are those of the source. Cut-off read from the data, not from the text of the source: active = GI50 up to about 1.1 µM and inactive = higher.
Quick reference: GI50 of the listed items.

# Compound, GI50
data = [
    ("O=C(O)CCCc1ccc2ccccc2c1", "> 100 µM (inactive)"),
    ("CC(N)C(C)Cc1ccccc1 (stereo not given)", "> 100 µM (inactive)"),
    ("O=C1Nc2c(Cl)cc(Cl)cc2C1=O", "19.3 µM (inactive)"),
    ("CC(=O)OCC1OC(Sc2ccccn2)C=CC1OC(C)=O (stereo not given)", "> 100 µM (inactive)"),
    ("CN(C)/C=N\\c1cc[nH]c(=O)n1", "> 100 µM (inactive)"),
]

* * *

Quick reference: GI50 of the listed items.
Test system: HT-29
Test Name: NCI tumour cell line growth inhibition, 48 h
Calls of active or inactive are those of the source. Rule as the data show it: active = GI50 up to about 1.1 µM and inactive = higher.

# Molecule, System, GI50
records = [
    ("Cc1c(CN2CCN(C)CC2)c(CN2CCN(C)CC2)c(C)n1-c1ccc(Cl)cc1", "HT-29", "18.2 µM (inactive)"),
    ("COc1ccc(/N=N/c2ccc3oc(=O)c(C(=O)Nc4ccccc4)cc3c2)cc1", "HT-29", "> 10 µM (inactive)"),
    ("CN(C)c1n/c(=N/Cc2cccs2)ss1", "HT-29", "> 10 µM (inactive)"),
    ("Nc1nc(N)c2ncn(Cc3ccccc3CCl)c2n1", "HT-29", "> 100 µM (inactive)"),
    ("O=C1CCC[C@@H]2NC[C@@H](c3ccc4c(c3)OCO4)[C@H]12", "HT-29", "> 25 µM (inactive)"),
    ("CCN(CC)C(=S)Oc1cc2oc(=O)cc(C)c2cc1Cl", "HT-29", "> 100 µM (inactive)"),
    ("N#Cc1[nH]c(=S)[nH]c1N", "HT-29", "> 100 µM (inactive)"),
    ("Cn1c(=O)n(C2(C)CSC2)c2ccccc21", "HT-29", "> 100 µM (inactive)"),
    ("C=CC1(CC)/C(=N\\O)C(CC)(CC)C(=O)N1O (stereo unspecified)", "HT-29", "> 100 µM (inactive)"),
    ("CC(=O)NNc1nc(C)c(C(=O)/C=C/c2ccc(Cl)c(Cl)c2)s1", "HT-29", "> 100 µM (inactive)"),
    ("O=C(NNS(=O)(=O)c1ccccc1)c1csc(NC(=S)NC2CCCCC2)n1", "HT-29", "33.6 µM (inactive)"),
]

* * *

Tested on: HOP-92
Test Name: NCI tumour cell line growth inhibition, 48 h
Active and inactive are the calls of the source. No stated cut-off is given here; in the data, active = GI50 up to about 1.1 µM and inactive = higher.
Possible outcomes: Y for active, N for inactive

# Compound, Assigned Category
rows = [
    ("Cc1cc(NCc2ccccc2)c2ccccc2[n+]1CCCCCCCCCC[n+]1c(C)cc(NCc2ccccc2)c2ccccc21.[O-][Cl+3]([O-])([O-])[O-].[O-][Cl+3]([O-])([O-])[O-]", "Y"),
    ("O=C(/C=C/c1c[nH]c2ccccc12)c1ccccc1O", "N"),
    ("CCOP(=O)(CN1CCNCCNCC1)OCC", "N"),
    ("CN(C)CCNC(=O)c1ccc(NCCCN(C)CCCNc2ccc(C(=O)NCCN(C)C)c3nc4ccccc4c(O)c23)c2c(O)c3ccccc3nc12", "Y"),
    ("O=C1Nc2c(Cl)cc(Cl)cc2C1=O", "N"),
    ("Cc1nnc(N/N=C(/C(=O)C(C#N)c2ccccc2)C(C#N)c2ccccc2)n1N (stereo not given)", "N"),
    ("N/C(CSCCSC/C(N)=N/O)=N\\O", "N"),
    ("CC(OC(C)(C)C)[C@H](NC(=O)OC(C)(C)C)C(=O)O (stereo not given in full)", "N"),
    ("CN1CCc2c(sc3ncn(Nc4ccc(Cl)cc4)c(=N)c23)C1", "N"),
    ("CCOC(=O)C(=O)Nc1c(N(CC)CC)n2ccccc2nc1=O", "N"),
    ("COc1ccccc1C1C2=C(COC2=O)OC(C)(C)Oc2cc3c(cc21)OCO3 (stereo not given)", "N"),
    ("CSCCC(N)P(C)(=O)O (stereo not given)", "N"),
    ("S=C1CNC(=S)CN1", "N"),
    ("Cc1cn(C2OC(CO[Si](C)(C)C(C)(C)C)C(N(C)O[Si](C)(C)C(C)(C)C)C2[Se]c2ccccc2)c(=O)[nH]c1=O (stereo not given)", "N"),
    ("CCc1c2c(cc3c1CC1(C3)Cc3cc4c(c(C(=O)OC)c3C1)CCCC4)CCCC2 (stereo not given)", "N"),
    ("O=P(CCOc1ccccc1OCCP(=O)(c1ccccc1)c1ccc2c(c1)OCCOCCOCCOCCO2)(c1ccccc1)c1ccc2c(c1)OCCOCCOCCOCCO2 (stereo not given)", "N"),
    ("CC(Oc1ccccc1Cl)C(=O)NN1C(=O)CSC1c1ccc(Cl)cc1 (stereo not given)", "N"),
    ("C=CC1=C(C)/C(=C/C2=NC(=C\\c3[nH]c(CC4NC(=O)C(C)/C4=C\\C)c(C)c3CCC(=O)O)/C(CC(=O)O)=C2C)NC1=O (stereo not given)", "N"),
    ("CN1C(=O)C(=O)N2c3ccc(Cl)cc3C3(c4ccccc4)N=CC12O3 (stereo not given)", "N"),
    ("COc1ccc2c3c1OC1C4(CCC5C(C2)N(CC2CC2)CCC351)OCCO4 (stereo not given)", "N"),
]
